molecular target: NEK6 (human); assay: radiometric filter-binding kinase assay, Kinase HotSpot; settings: compound 0.5 µM; ATP 10 µM
recorded_metric: residual activity (%)
Unit % implied. Number only.

Example compounds with recorded residual activity:
O=c1[nH]c2ccccc2n1C1CCN(Cc2ccc(-c3nc4cc5[nH]cnc5cc4nc3-c3ccccc3)cc2)CC1
98.2
N/C(=N\N=C/c1ccc(-c2cccc([N+](=O)[O-])c2)o1)N[N+](=O)[O-]
93.4
O=c1c(-c2ccc(F)cc2)c(-c2ccncc2)[nH]n1-c1ccc(Cl)cc1
106

Recorded residual activity for CCOc1cc2ncnc(Nc3cccc(Br)c3)c2cc1OCC with NEK6 (human), please? 106

Recorded residual activity for COc1cccc(-c2cc(=O)c3ccccc3o2)c1N with NEK6 (human), please? 102
